# EC50 values compiled below
molecular target: cynomolgus monkey IL-2Rα/CD25 subunit (cynomolgus monkey) (UniProt H6WS54); assay: ELISA, monovalent VHH-hFc
Sequence (H6WS54 entry or part of it): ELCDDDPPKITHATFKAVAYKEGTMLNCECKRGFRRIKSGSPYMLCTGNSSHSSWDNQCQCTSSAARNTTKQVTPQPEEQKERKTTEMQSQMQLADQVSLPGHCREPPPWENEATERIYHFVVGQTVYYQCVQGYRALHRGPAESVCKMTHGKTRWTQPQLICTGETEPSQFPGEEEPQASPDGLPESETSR
Give the value, in units of nM, as a plain number.

binder	unit-of-measure	EC50
4-MP01F04 VHH-hFc, monospecific monovalent (Fc fusion, part only; not given: Fc arms with stated mutations, not shown: another chain or arm of the molecule; a dimerising Fc or GST; small tags and cut ends) VHH: QVQLVESGGGLVQAGGSLRLSCAASGGTFRTRNMGWFRRAPGKEREFVAAVSWNVDNKLYADSVKGRFTISRDNGRNMVYLQMNSLKPEDTAVYYCAADNIPLSSDMRPTATEYDYWGQGTQVTVSS	nM	0.074

Lookup: Which measured EC50 value corresponds to 2-MP01A02 VHH-hFc, monospecific monovalent (Fc fusion, part only; not given: Both Fc arms and linker, not shown: another chain or arm of the molecule; a dimerising Fc or GST; small tags and cut ends) VHH: QVQLVESGGGLVQPGGSLRLSCATSGFTFRNNFMSWVRQAPGKGLEWVSTISYGGESTTYAESVKGRFTISRDNAKNTLYLQMNNLKPEDTAVYYCAKATSYDSIRSGSRGQGTQVTVSS ?
Found: 0.096

Lookup: Then this binder: 12-MP05B12 VHH-hFc, monospecific monovalent (Fc fusion, part only; not given: Both Fc arms and linker, not shown: another chain or arm of the molecule; a dimerising Fc or GST; small tags and cut ends) VHH: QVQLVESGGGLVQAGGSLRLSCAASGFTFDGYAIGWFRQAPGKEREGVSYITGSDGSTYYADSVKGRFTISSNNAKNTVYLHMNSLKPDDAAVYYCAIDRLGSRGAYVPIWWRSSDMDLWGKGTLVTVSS
Found: 1.1

Lookup: Item: 3-MP01E03 VHH-hFc, monospecific monovalent (Fc fusion, part only; not given: Both Fc arms and linker, not shown: another chain or arm of the molecule; a dimerising Fc or GST; small tags and cut ends) VHH: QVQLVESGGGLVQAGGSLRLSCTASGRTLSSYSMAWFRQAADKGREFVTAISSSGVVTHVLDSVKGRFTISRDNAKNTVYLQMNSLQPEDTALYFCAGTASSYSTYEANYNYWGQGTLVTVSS
Found: 1.15

Lookup: Another binder: 11-MP05H04 VHH-hFc, monospecific monovalent (Fc fusion, part only; not given: Both Fc arms and linker, not shown: another chain or arm of the molecule; a dimerising Fc or GST; small tags and cut ends) VHH: QLQLVESGGGLVQAGGSLRLSCAASGLTFEGYAIGWFRQAPGKEREGVSYITGSDGTTYYINSVKGRFTISSDNAKSTVYLQMNTLKPEDTAVYYCAVDRLGSQGRYASAWWRSGDMDLWGKGTQVTVSS
Found: 1.25

Lookup: Moving on to the next binder: 1-MP01H01 VHH-hFc, monospecific monovalent (Fc fusion, part only; not given: Both Fc arms and linker, not shown: another chain or arm of the molecule; a dimerising Fc or GST; small tags and cut ends) VHH: EVQLVESGGGLVQAGGSLRLSCAASGRTFRTHNMGWFRRAPGKEREFVAAISWNVDNTLYADSVKGRFTISRDNGRNMVYLQMNSLKPEDTAVYYCAADNIPLSSDVAATATEYDYWGQGTQVTVSS
Found: 0.498

Lookup: Query 9-MP05G01 VHH-hFc, monospecific monovalent (Fc fusion, part only; not given: Both Fc arms and linker, not shown: another chain or arm of the molecule; a dimerising Fc or GST; small tags and cut ends) VHH: EVQLVESGGGLVQAGGSLRLSCAASGGSIYTYNMGWFRQAPGKEREFVAGTLWSGGDSVYADFAKGRFTLSRENAKNTLYLQMNSLKPEDTATYYCAIDPLSLTSDWRVDELSSWGKGTLVTVSS next
Found: 0.074

Lookup: Try 10-MP05F03 VHH-hFc, monospecific monovalent (Fc fusion, part only; not given: Both Fc arms and linker, not shown: another chain or arm of the molecule; a dimerising Fc or GST; small tags and cut ends) VHH: QVQLVESGGGLVQAGGSLRLSCAASGIPFDNYAMGWFRQAPGKEREFVAARDLEGIITRYGDSVKGRFTISRGNAKNTVFLQMNSLKPEDTAVYYCAARDGGVVAGSRSSAQYNYWGQGTQVTVSS next.
Found: 0.098
